- Tested on: NCI-H226 lung
- Assay Comment: NCI-60 one-dose screen, 48 h (100 = growth as untreated, 0 = no growth, -100 = all killed)
- Experimental Setup: 10 µM unless noted
The panel holds about 83,000 compounds, 20% with a hit somewhere; the sample as a whole holds those more often.
The reader will find reported growth values listed item by item below.
API: value field is a number in %; no unit string.

compound="Nc1ncnc2c1N=C(c1ccc(F)cc1)CC(c1cccc(Nc3ccnc4cc(Cl)ccc34)c1)N2 (centres undefined)" study_target="NCI-H226 lung" measure=growth measurement_units=% data_value=91.5
compound=CN1CCN(Cc2ccc(NC(=O)c3cncc(C#Cc4cnc(N)cc4C#N)c3)cc2C(F)(F)F)CC1 study_target="NCI-H226 lung" measure=growth measurement_units=% data_value=7.61
compound=COc1cc(/C=C/C(=O)c2cc(OC)c(OC)c(OC)c2)ccc1Oc1nc2c(c(=O)n(C)c(=O)n2C)n1C study_target="NCI-H226 lung" measure=growth measurement_units=% data_value=-35.4

For the compound shown here, O=C(NCCNC(c1ccccc1)C(NCCNC(=O)c1ccccc1)c1ccccc1)c1ccccc1 (centres undefined) , give the reported growth.
100
